- Test system: IGROV-1
- test-name: NCI tumour cell line growth inhibition, 48 h
Active and inactive are the calls of the source. No stated cut-off is given here; in the data, active = GI50 up to about 1.1 µM and inactive = higher. Where a SMILES comes first, the peptide text is derived from it.
Consider the following compounds; for each one, report its GI50.

Query block: Value lookup for GI50; key = C(=N\CCCN1CCN(CCC/N=C/c2cccc3ccccc23)CC1)/c1cccc2ccccc12
Result block: > 100 µM (inactive)

Query block: Value lookup for GI50; key = O=C(COc1ccc(Br)cc1Br)N1N=C(c2ccc([N+](=O)[O-])o2)CC1(O)c1ccccc1 (stereo not drawn)
Result block: 19.5 µM (inactive)

Query block: Value lookup for GI50; key = O=C1/C(=C/c2cccc(Br)c2)Cc2ccccc21
Result block: 16.8 µM (inactive)

Query block: Value lookup for GI50; key = CC(=O)NNC(=O)C1CCCCN1 (stereo not drawn)
Result block: > 100 µM (inactive)

Query block: Value lookup for GI50; key = CN(C)Cc1cc(C(=O)/C=C/c2ccccc2)cc(CN(C)C)c1O
Result block: 31.9 µM (inactive)

Query block: Value lookup for GI50; key = N#Cc1c(N2CCOCC2)[nH]c(=O)c(C(c2c(Cl)cccc2Cl)c2c(O)c(C#N)c(N3CCOCC3)[nH]c2=O)c1O
Result block: 18.1 µM (inactive)

Query block: Value lookup for GI50; key = COP(=O)(OC)C(=O)N1N(c2ccc([N+](=O)[O-])cc2)C(=O)C(C)NC1(NNc1ccc([N+](=O)[O-])cc1)P(=O)(OC)OC (stereo not drawn)
Result block: > 100 µM (inactive)

Query block: Value lookup for GI50; key = C/C(=C\COP(=O)(O)CP(=O)(O)O)CC/C=C(\C)CNc1ccccc1
Result block: > 100 µM (inactive)

Query block: Value lookup for GI50; key = O=c1cc(/C=C/c2ccccc2)c2ccc(O/C(=C\c3ccccc3)c3nc4ccccc4c(=O)o3)cc2o1
Result block: 30.1 µM (inactive)

Query block: Value lookup for GI50; key = O=C(O)CCCSc1ccccc1
Result block: > 100 µM (inactive)

Query block: Value lookup for GI50; key = Clc1cc2ncn(C3CCCO3)c2cc1Cl (stereo not drawn)
Result block: 17.3 µM (inactive)

Query block: Value lookup for GI50; key = C/C(=N\NC(=S)N1CCCCCC1)c1cccc2cccnc12
Result block: 1.86 µM (inactive)

Query block: Value lookup for GI50; key = COC1CCC2C(NS(=O)(=O)c3ccc(C)cc3)CCCC2O1.Cc1ccc(S(=O)(=O)NC(C)(C)C=O)cc1 (stereo not drawn)
Result block: 16.4 µM (inactive)

Query block: Value lookup for GI50; key = O=c1oc(C(C(F)(F)F)C(F)(F)F)nc2ccccc12
Result block: > 100 µM (inactive)

Query block: Value lookup for GI50; key = O=C(N/N=C/c1ccccc1O)N/N=C/c1ccccc1O
Result block: > 100 µM (inactive)

Query block: Value lookup for GI50; key = COc1cccc(N(CN2CC=CC2=O)C(C)=O)c1
Result block: > 100 µM (inactive)

Query block: Value lookup for GI50; key = Cc1nc(C(N)=S)sc1C(=O)C/C(=N/N)C(=O)Nc1ccc(Cl)cc1
Result block: 16.5 µM (inactive)

Query block: Value lookup for GI50; key = O=C(/C(=C\I)c1ccccc1)c1ccccc1
Result block: 10.8 µM (inactive)

Query block: Value lookup for GI50; key = CC(=O)OCC1OC(n2c(-c3ccc(C)cc3)cc(-c3ccccc3)c(C#N)c2=O)C(OC(C)=O)C(OC(C)=O)C1OC(C)=O (stereo not drawn)
Result block: > 100 µM (inactive)

Query block: Value lookup for GI50; key = CNc1nncc2[nH]cnc12
Result block: > 100 µM (inactive)

Query block: Value lookup for GI50; key = CN(C)C(=S)NC(=S)Nc1ccc2ccccc2c1
Result block: 14.4 µM (inactive)

Query block: Value lookup for GI50; key = NC(=O)C1CCCN1C(=O)C(N)Cc1ccccc1 (stereo not drawn) (H-Phe-Pro-NH2; configuration not given here)
Result block: > 100 µM (inactive)

Query block: Value lookup for GI50; key = Cn1c2c(c3ccccc31)C1CCCCCCC1C1C(=O)OC(=O)C21 (stereo not drawn)
Result block: 27.4 µM (inactive)

Query block: Value lookup for GI50; key = Nc1nc(=O)[nH]c2c1cnn2Cc1ccccc1
Result block: > 100 µM (inactive)

Query block: Value lookup for GI50; key = CC(C)CCC1(O)O[C@H]2C[C@H]3[C@@H]4CCC5CC(=O)C=C[C@]5(C)[C@H]4CC[C@]3(C)[C@H]2[C@@H]1C (stereo partly drawn)
Result block: 15.6 µM (inactive)

Query block: Value lookup for GI50; key = Cc1cc(O)nc(NN2C(Cl)C(=O)C2c2ccc([N+](=O)[O-])cc2)n1 (stereo not drawn)
Result block: 4.03 µM (inactive)

Query block: Value lookup for GI50; key = COc1cccc2c1C(=O)c1ccc3cc(CCl)cc(O)c3c1C2=O
Result block: 1.03 µM (active)

Query block: Value lookup for GI50; key = O=c1c2c([N+](=O)[O-])cccc2nc2[nH]c3ccccc3n12
Result block: 11.9 µM (inactive)

Query block: Value lookup for GI50; key = CN(CCS(=O)(=O)N1C(=O)C2CCCN2C(=O)[C@@H]1Cc1ccccc1)C(=O)OCc1ccccc1 (stereo partly drawn)
Result block: > 100 µM (inactive)

Query block: Value lookup for GI50; key = N=c1n(CC(=O)NC23CC4CC(CC(C4)C2)C3)c2ccccc2n1CC(=O)NC12CC3CC(CC(C3)C1)C2
Result block: 1.56 µM (inactive)

Query block: Value lookup for GI50; key = CN(C)C(=O)Oc1c(-c2ccccc2)c(=O)n2c3ccccc3n3c(=O)n(C)c(=O)c1c23
Result block: > 100 µM (inactive)

Query block: Value lookup for GI50; key = COC(=O)c1ccc(Oc2nc3ccccc3nc2-c2cccs2)cc1
Result block: 39.3 µM (inactive)

Query block: Value lookup for GI50; key = CC(=O)Nc1cc2ccc(=O)oc2cc1Cl
Result block: > 100 µM (inactive)

Query block: Value lookup for GI50; key = Cc1ccc(C)c2c1C1CCCCC3(OCCCO3)C21O (stereo not drawn)
Result block: > 100 µM (inactive)

Query block: Value lookup for GI50; key = OC12c3ccccc3C1(N1CCOCC1)CCCCC21OCCCO1 (stereo not drawn)
Result block: > 100 µM (inactive)

Query block: Value lookup for GI50; key = CCOC(=O)C(=Cc1ccc(Oc2ccccc2)cc1)C(=O)OCC
Result block: 6.81 µM (inactive)

Query block: Value lookup for GI50; key = Cn1c(-c2ccco2)ccc1-c1ccc(C=O)o1
Result block: 38.2 µM (inactive)

Query block: Value lookup for GI50; key = O=[N+]([O-])c1cc([As](Br)c2ccc(O)c([N+](=O)[O-])c2)ccc1O
Result block: 1.47 µM (inactive)

Query block: Value lookup for GI50; key = O=P1(c2ccccc2)CCCCC1
Result block: > 100 µM (inactive)

Query block: Value lookup for GI50; key = CCOC(=O)/C=C(/C(=O)OCC)n1ccc(=O)n(Cc2cnnn2COCCOC(C)=O)c1=O
Result block: 17.9 µM (inactive)

Query block: Value lookup for GI50; key = COC(=O)CNC(=O)CSc1nnc(COc2ccc(Cl)cc2)n1-c1ccccc1
Result block: 21 µM (inactive)

Query block: Value lookup for GI50; key = N=C(N)n1nc2c(c1O)CCCC2
Result block: 65.2 µM (inactive)

Query block: Value lookup for GI50; key = CS(=O)(=O)NNS(=O)(=O)c1ccc(Br)cc1
Result block: > 100 µM (inactive)

* * *

- System: MDA-N
- test-name: NCI tumour cell line growth inhibition, 48 h
Calls of active or inactive are those of the source. Rule as the data show it: active = GI50 up to about 1.1 µM and inactive = higher.
reported-endpoint: GI50

Query block: Given the entry CC(=O)O[C@H]1C[C@H]2C(=S)Nc3ccccc3C(=S)N2C1 , what GI50 was observed with MDA-N?
Result block: > 100 µM (inactive)

Query block: Given the entry O=c1c(-c2ccccc2)c(SCCN2CCCC2)n(-c2ccccc2)c(=S)n1-c1ccccc1 , what GI50 was observed with MDA-N?
Result block: > 100 µM (inactive)

Query block: Given the entry C#CCOCCCC(=O)O , what GI50 was observed with MDA-N?
Result block: > 100 µM (inactive)

Query block: Given the entry CCCCCCCCCCCCCCCCCCNc1nc(=O)n(C2CC(O)C(COP(=O)(O)OCC(COP(=O)(O)OC3C(CO)OC(n4ccc(N)nc4=O)C3O)OCCCCCCCCCCCCCCCCCC)O2)cc1F (stereo not given) , what GI50 was observed with MDA-N?
Result block: > 100 µM (inactive)

Query block: Given the entry O=C(/C=C/c1ccc2ccccc2c1)NCc1ccc(C(=O)NCCc2ccccc2)cc1 , what GI50 was observed with MDA-N?
Result block: > 100 µM (inactive)
